Some binders, each annotated with its measured Kd.
target.or.system: T1, recombinant human IGSF8 extracellular domain tagged by a human Fc region (IGSF8-hFc) (human, UniProt Q969P0 28-579, biotin label in Examples 17, 18 and 28 (site not given))
T1 construct: also called IGSF8-Fc fusion protein; IGSF8-hFc-biotin; not shown: human Fc region
T1 sequence: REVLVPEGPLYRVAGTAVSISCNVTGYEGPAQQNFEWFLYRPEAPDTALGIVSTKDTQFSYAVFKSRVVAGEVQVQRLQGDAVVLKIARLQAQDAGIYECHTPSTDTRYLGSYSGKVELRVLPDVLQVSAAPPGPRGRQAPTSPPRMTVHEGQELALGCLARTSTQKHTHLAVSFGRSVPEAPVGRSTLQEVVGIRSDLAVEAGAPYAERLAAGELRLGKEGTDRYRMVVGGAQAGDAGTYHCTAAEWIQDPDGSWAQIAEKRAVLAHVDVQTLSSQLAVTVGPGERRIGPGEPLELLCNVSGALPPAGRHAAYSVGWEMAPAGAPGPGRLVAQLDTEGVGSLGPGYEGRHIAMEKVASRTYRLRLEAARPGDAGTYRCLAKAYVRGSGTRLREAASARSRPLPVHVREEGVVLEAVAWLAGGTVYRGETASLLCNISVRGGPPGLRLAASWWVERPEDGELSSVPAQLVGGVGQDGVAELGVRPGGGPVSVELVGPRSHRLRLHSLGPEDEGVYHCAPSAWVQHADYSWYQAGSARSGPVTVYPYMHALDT
test.description: SPR, Ab captured

binder	unit.tag	Kd
L2-07 (antibody, V domains shown) VH: EVQLVESGGGLEQPGGSLRLSCAASGFTFRDYAMTWVRQAPGKGLEWVSSISGSGGSTYYADSVKGRFTISRDNSKNTLYLQMNSLRAEDTAIYYCARGEYSSGWPSWFDPWGQGTLVTVSS VL: DIQMTQSPSSLSASVGDRVTITCRASRTVGTFLNWYQQKPGKAPKALILGVSILEGGVPSRFSGSGSGTDFTLTISSLQPEDIGTYYCQQSHDVPRTFGQGTKVEIK	nM	1.16
L1-31 (antibody, V domains shown) VH: QVQLVESGGGVVQPGRSLRLSCAASGFTFSTYGMHWVRQAPGKGLEWVAVIWDGGKYKYYGDSVKGRFTISRDNSKNTLYLQMNSLRAEDTAVYYCARDGSGWGYAFDIWGQGTLVTVSS VL: DIQLTQSPSSLSASVGDRVTITCQASQDIGPWLNWYQHKPGKAPKPLVFRSPNLETGVPSRFSASGSGTDFTLTISSLQPEDFATYYCQQYDSFPYTFGQGTKVEIK	nM	0.00371
L1VL-Y91F (antibody, V domains shown) VH: QVQLVESGGGVVQPGRSLRLSCAASGFTFSTYGMHWVRQAPGKGLEWVAVIWDDGSYKYYGDSVKGRFTISRDNSKNTLYLQMNSLRAEDTAVYYCARDGSGWGYAFDIWGQGTMVTVSS VL: DIQLTQSPSSLSASVGDRVTITCQASQDISEYLNWYQHKPGKAPNPLVFDAANLETGVPPRFSATGSGTDFSLTITSLQPEDFATYYCQQFDSFPYTFGQGTRLDIK	nM	321
L1-25 (antibody, V domains shown) VH: QVQLVESGGGVVQPGRSLRLSCAASGFTFSTYGMHWVRQAPGKGLEWVAVIWDDGSYKYYGDSVKGRFTISRDNSKNTLYLQMNSLRAEDTAVYYCARDGSGWGYAFDIWGQGTLVTVSS VL: DIQLTQSPSSLSASVGDRVTITCQASQDISPWLNWYQHKPGKAPKPLVFGSPNLETGVPSRFSASGSGTDFTLTISSLQPEDFATYYCQQYDSFPYTFGQGTKVEIK	nM	4.46
L2VH-S50A (antibody, V domains shown) VH: EVQLVESGGGLEQPGGSLRLSCAGSGFTFRDYAMTWVRQAPGKGLEWVSAISGSGGNTYYADSVKGRFTISRDNSKNTLYLQMNSLRAEDTAIYYCARGEYSSGWPSWFDPWGQGTLVTVSS VL: EIVLTQSPSSLSASVGDRVTISCRASRTVGTFLNWYQQRPGKPPQALILGVSILEGGVSSRFSGAGSGTEFSLTISSLQPEDIGTYYCQQSHDVPRTFGQGTKVDLR	nM	23.7
L2-06 (antibody, V domains shown) VH: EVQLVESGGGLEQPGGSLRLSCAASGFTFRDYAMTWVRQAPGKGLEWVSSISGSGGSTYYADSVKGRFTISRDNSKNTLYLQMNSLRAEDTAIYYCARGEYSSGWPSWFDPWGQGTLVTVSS VL: DIQMTQSPSSLSASVGDRVTITCRASRTVGTFLNWYQQKPGKAPKALILGVSILEGGVPSRFSGSGSGTDFTLTISSLQLEDFATYYCQQSHDVPRTFGQGTKVEIK	nM	5.45
L1VH-D54T (antibody, V domains shown) VH: QVQLVESGGGVVQPGRSLRLSCAASGFTFSTYGMHWVRQAPGKGLEWVAVIWDTGSYKYYGDSVKGRFTISRDNSKNTLYLQMNSLRAEDTAVYYCARDGSGWGYAFDIWGQGTMVTVSS VL: DIQLTQSPSSLSASVGDRVTITCQASQDISEYLNWYQHKPGKAPNPLVFDAANLETGVPPRFSATGSGTDFSLTITSLQPEDFATYYCQQYDSFPYTFGQGTRLDIK	nM	571
L1-19 (antibody, V domains shown) VH: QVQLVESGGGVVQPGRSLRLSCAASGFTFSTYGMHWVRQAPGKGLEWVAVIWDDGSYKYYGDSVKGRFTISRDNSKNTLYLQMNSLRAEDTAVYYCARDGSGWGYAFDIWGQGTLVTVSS VL: DIQMTQSPSSLSASVGDRVTITCQASQDISPYLNWYQQKPGKAPKLLIYDAPNLETGVPSRFSGSGSGTDFTFTISSLQPEDIATYYCQQYDSFPYTFGQGTKVEIK	nM	4.58
L2-10 (antibody, V domains shown, also called L2-10-IgG1) VH: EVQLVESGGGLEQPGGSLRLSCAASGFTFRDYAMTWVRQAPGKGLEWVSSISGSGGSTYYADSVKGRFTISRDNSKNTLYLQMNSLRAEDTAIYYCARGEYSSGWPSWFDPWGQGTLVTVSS VL: DIQMTQSPSSLSASVGDRVTITCRASRTVGTFLNWYQQKPGKAPKALILHTSILEGGVPSRFSGSGSGTDFTLTISSLQPEDIATYYCQQSHDVPRTFGQGTKVEIK	nM	0.256
L2VH-D31S (antibody, V domains shown) VH: EVQLVESGGGLEQPGGSLRLSCAGSGFTFRSYAMTWVRQAPGKGLEWVSSISGSGGNTYYADSVKGRFTISRDNSKNTLYLQMNSLRAEDTAIYYCARGEYSSGWPSWFDPWGQGTLVTVSS VL: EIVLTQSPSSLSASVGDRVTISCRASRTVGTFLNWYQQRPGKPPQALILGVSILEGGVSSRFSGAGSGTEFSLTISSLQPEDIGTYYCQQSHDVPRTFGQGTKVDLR	nM	465

Values from patent US20230303695A1
